TESTED ON: HEXA/HEXB (Bos taurus, UniProt Q0V8R6+H7BWW2)
PROCEDURE TEXT: Competitive inhibition of cow HexA/HexB (unknown origin) using pNP-GlcNAc as substrate assessed as inhibition constant by measuring liberation of nitrophenol preincubated with enzyme followed by substrate addition by Dixon plot analysis
Assay type: protein
Measured Ki accompanies every entry in the list below.
RECORDED METRIC: Ki (µM)

>>> df
                                item_smiles  unit_of_measure  assay_value
0  CC(=O)N[C@H]1/C(=N/NC(=O)Nc2cccc3ccccc23)O[C@H](CO)[C@@H](O)[C@@H]1O               µM        0.154
1  CC(=O)N[C@H]1/C(=N/NC(=O)Nc2ccccc2)O[C@H](CO)[C@@H](O)[C@@H]1O               µM        0.205
2  CC(=O)N[C@H]1/C(=N/NC(=O)Nc2ccc(C)cc2)O[C@H](CO)[C@@H](O)[C@@H]1O               µM        0.332
3  CC(=O)N[C@H]1/C(=N/NC(=O)Nc2ccc(Cl)cc2)O[C@H](CO)[C@@H](O)[C@@H]1O               µM         0.17
